assay: RCMB18 cell growth, single agent and combined, cisplatin and BGB IC40 combos (AID 1671462); details: RCMB18 medulloblastoma cells, cisplatin combo, at 5 µM, stronger effect = higher value;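 further: cells exposed to compound for four days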
Assignment: determine reported inhibition for the given compounds.
Entry rule: numbers only, all in %.

Bench note: what inhibition did Nc1nc2n[nH]nc2c(=O)[nH]1 show?
33.1

Item under review: COc1cc(C=O)c([N+](=O)[O-])cc1OC . Reported inhibition?
-1.64

# lookup: inhibition of CC(=O)Nc1nc(C)c(-c2ccc(Cl)c(S(=O)(=O)NCCO)c2)s1
16.5

Look at this compound and give its reported inhibition. COc1ccc(-n2c(SCCCN3C(=O)c4cccc5cccc(c45)C3=O)nnc2-c2ccncc2)cc1
17.7

Tell me the measured inhibition of NCCOc1cc(C(=O)Nc2cc(OCCN)c3ccccc3n2)nc(C(=O)Nc2cc(OCCN)c3ccccc3n2)c1 , please.
-19.4
